molecular target: UniProt:P08254
Sequence (P08254 whole entry): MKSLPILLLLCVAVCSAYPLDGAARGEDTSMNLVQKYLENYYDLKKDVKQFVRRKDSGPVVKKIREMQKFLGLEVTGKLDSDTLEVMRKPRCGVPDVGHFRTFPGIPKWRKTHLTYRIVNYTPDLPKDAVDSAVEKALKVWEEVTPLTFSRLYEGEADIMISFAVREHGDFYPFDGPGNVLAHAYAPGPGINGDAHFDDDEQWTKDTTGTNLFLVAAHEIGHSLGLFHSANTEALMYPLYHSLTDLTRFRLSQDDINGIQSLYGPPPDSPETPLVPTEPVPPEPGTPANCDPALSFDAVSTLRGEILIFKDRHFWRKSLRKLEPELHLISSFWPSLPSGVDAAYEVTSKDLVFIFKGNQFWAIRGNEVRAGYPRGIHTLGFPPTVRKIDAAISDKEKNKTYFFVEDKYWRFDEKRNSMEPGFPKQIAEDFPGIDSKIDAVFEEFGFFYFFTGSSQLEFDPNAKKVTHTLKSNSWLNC
endpoint name: Ki (nM)

[a] CC(C)C[C@H](NC(=O)[C@H](CCCCCCCCCN)N[C@H](C)C(=O)O)C(=O)Nc1ccccc1
[b] CCCCCCCC[C@H](N[C@H](C)C(=O)O)C(=O)N[C@@H](CC(C)C)C(=O)Nc1ccccc1
[c] CCCCCCCC[C@H](N[C@H](C)C(=O)O)C(=O)N[C@@H](CCCN=C(N)N)C(=O)Nc1ccccc1
[d] C[C@@H](N[C@@H](CCCCCCCCCN)C(=O)N[C@@H](CCCN=C(N)N)C(=O)Nc1ccccc1)C(=O)O
Rank the items in ascending order with respect to Ki. # answer = labels listed in requested order
a, d, b, c
(a: 240 nM, d: 370 nM, b: 570 nM, c: 1600 nM)

---

target: 72 kDa type IV collagenase (Homo sapiens, UniProt P08253); test: Inhibition of human gelatinase A (MMP-2)
Sequence (P08253 whole entry): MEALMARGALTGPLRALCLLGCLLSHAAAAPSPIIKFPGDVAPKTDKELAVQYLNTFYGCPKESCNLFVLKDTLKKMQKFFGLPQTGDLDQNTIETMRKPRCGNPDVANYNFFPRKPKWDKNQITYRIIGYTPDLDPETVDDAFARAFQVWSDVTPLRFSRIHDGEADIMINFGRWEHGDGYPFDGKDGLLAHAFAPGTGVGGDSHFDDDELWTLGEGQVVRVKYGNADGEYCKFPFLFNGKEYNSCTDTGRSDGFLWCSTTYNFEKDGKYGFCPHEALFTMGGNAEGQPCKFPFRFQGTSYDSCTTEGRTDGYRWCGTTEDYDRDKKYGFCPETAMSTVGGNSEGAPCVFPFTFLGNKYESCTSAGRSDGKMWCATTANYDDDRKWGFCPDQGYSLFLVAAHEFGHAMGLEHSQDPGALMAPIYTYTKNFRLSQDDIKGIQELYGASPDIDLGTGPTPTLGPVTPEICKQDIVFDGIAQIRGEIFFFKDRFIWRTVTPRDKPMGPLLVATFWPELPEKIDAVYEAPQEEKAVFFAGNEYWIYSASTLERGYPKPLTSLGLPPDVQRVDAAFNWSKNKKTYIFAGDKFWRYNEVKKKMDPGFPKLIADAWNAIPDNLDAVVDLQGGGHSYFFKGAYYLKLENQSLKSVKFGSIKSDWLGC
pKi: −log10 of the molar value.
endpoint name: pKi

[A] CCCCCCCC[C@H](N[C@H](C)C(=O)O)C(=O)N[C@@H](CCCN=C(N)N)C(=O)Nc1ccccc1
[B] CC(C)C[C@H](NC(=O)[C@H](CCCCCCCCCN)N[C@H](C)C(=O)O)C(=O)Nc1ccccc1
Between A and B , which one has the lower reported pKi value? Write down the label attached to your selection.
B

---

Target protein (sequence): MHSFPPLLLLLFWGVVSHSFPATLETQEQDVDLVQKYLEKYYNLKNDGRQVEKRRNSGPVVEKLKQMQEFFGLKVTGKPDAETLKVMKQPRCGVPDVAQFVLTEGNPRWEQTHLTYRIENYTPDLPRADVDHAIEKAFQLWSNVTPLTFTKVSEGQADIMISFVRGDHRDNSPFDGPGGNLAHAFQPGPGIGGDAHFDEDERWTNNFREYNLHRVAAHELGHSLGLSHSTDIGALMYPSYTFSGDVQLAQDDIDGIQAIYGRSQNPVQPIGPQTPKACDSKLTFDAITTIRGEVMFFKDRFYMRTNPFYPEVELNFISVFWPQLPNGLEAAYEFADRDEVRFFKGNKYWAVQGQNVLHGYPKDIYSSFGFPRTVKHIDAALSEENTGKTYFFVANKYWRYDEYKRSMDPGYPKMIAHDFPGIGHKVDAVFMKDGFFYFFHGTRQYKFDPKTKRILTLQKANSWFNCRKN
pKi: −log10 of the molar value.
endpoint name: pKi

Some solved cases for reference:
# structure notation, pKi
rows = [
    ("CC(C)C[C@H](NC(=O)[C@H](CCCCCCCCCN)N[C@H](C)C(=O)O)C(=O)Nc1ccccc1", "< 5.00"),
    ("CCCCCCCC[C@H](N[C@H](C)C(=O)O)C(=O)N[C@@H](CC(C)C)C(=O)Nc1ccccc1", "< 5.00"),
    ("CC(C)C[C@H](NC(=O)[C@H](CCc1ccccc1)N[C@H](C)C(=O)O)C(=O)Nc1ccccc1", 6.12),
]

Let us move to another entry and its pKi.
Noted for `CCCCCCCC[C@H](N[C@H](C)C(=O)O)C(=O)N[C@@H](CCCN=C(N)N)C(=O)Nc1ccccc1` : its pKi reads < 5.00
